TGT: α3β4 nAChR subtype (Rattus norvegicus, UniProt P04757+P12392)
Construct: expressed in transfected cells
Sequence (P04757 26-499): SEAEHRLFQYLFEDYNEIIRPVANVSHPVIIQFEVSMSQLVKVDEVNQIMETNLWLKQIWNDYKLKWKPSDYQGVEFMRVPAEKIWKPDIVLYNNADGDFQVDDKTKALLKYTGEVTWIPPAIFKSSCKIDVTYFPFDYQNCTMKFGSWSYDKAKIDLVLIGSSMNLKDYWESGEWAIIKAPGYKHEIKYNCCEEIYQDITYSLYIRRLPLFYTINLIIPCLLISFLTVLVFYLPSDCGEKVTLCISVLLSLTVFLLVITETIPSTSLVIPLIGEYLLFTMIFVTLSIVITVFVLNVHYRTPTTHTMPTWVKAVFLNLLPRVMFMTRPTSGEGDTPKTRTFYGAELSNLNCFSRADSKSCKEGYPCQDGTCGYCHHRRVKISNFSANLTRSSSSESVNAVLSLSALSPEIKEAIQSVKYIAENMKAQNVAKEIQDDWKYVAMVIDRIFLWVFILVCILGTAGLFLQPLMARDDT
Sequence (P12392 21-495): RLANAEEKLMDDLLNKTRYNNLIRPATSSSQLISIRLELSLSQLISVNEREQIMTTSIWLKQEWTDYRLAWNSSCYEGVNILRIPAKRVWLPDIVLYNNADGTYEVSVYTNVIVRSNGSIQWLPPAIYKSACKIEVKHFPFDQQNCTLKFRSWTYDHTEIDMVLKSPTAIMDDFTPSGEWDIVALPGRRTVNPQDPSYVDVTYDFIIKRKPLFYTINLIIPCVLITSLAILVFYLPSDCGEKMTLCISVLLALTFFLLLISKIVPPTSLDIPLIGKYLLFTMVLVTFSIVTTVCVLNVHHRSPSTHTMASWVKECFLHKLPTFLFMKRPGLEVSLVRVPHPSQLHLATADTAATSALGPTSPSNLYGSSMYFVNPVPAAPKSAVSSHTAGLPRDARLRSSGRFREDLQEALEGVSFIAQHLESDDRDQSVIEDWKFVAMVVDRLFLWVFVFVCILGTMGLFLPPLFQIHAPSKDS
ASSAY EXPLANATION: biochemical
Format: binding
PROTOCOL CONDITIONS: Ki α3β4, Table 5; rat nAChR subtypes
READOUT NAME: log10 Ki (log10 of the value in nM)

{"MOLECULE": "OC1CC2CC(c3ccc(Cl)nc3)C1N2 (centres unmarked)", "TGT": "α3β4 nAChR subtype (Rattus norvegicus, UniProt P04757+P12392)", "QUANTITATIVE READOUT": 2.16}
{"MOLECULE": "O=C1CC2CC(c3ccc(Cl)nc3)C1N2 (centres unmarked)", "TGT": "α3β4 nAChR subtype (Rattus norvegicus, UniProt P04757+P12392)", "QUANTITATIVE READOUT": 3.95}
{"MOLECULE": "Clc1cc2c(cn1)C1C3CCC(N3)C1CC2 (centres unmarked) [Ligand 37a]", "TGT": "α3β4 nAChR subtype (Rattus norvegicus, UniProt P04757+P12392)", "QUANTITATIVE READOUT": 3.34}
{"MOLECULE": "FCCCCC#Cc1cncc(OC[C@@H]2CCCN2)c1", "TGT": "α3β4 nAChR subtype (Rattus norvegicus, UniProt P04757+P12392)", "QUANTITATIVE READOUT": 3.88}
{"MOLECULE": "O[C@H]1C[C@H]2N[C@@H]1C[C@@H]2c1ccc(Cl)nc1 (relative stereo)", "TGT": "α3β4 nAChR subtype (Rattus norvegicus, UniProt P04757+P12392)", "QUANTITATIVE READOUT": 2.35}
{"MOLECULE": "FCCCCC#Cc1cncc(OC[C@@H]2CCN2)c1", "TGT": "α3β4 nAChR subtype (Rattus norvegicus, UniProt P04757+P12392)", "QUANTITATIVE READOUT": 3.74}
{"MOLECULE": "OC1CC2NC1CC2c1ccc(Cl)nc1 (centres unmarked)", "TGT": "α3β4 nAChR subtype (Rattus norvegicus, UniProt P04757+P12392)", "QUANTITATIVE READOUT": 2.96}
{"MOLECULE": "FC1CC2CC(c3ccc(Cl)nc3)C1N2 (centres unmarked)", "TGT": "α3β4 nAChR subtype (Rattus norvegicus, UniProt P04757+P12392)", "QUANTITATIVE READOUT": 0.39}
{"MOLECULE": "CCCCCC#Cc1ccc(C2CC3CCC2N3)cn1 (centres unmarked)", "TGT": "α3β4 nAChR subtype (Rattus norvegicus, UniProt P04757+P12392)", "QUANTITATIVE READOUT": 1.98}
{"MOLECULE": "OC1C2CCC(N2)C1c1ccc(Cl)nc1 (single isomer, unassigned) [Ligand 3]", "TGT": "α3β4 nAChR subtype (Rattus norvegicus, UniProt P04757+P12392)", "QUANTITATIVE READOUT": 1.59}
{"MOLECULE": "c1cncc(OC[C@@H]2CCN2)c1 [Ligand A-85380, reference compound]", "TGT": "α3β4 nAChR subtype (Rattus norvegicus, UniProt P04757+P12392)", "QUANTITATIVE READOUT": 1.89}
{"MOLECULE": "O=C1CC2NC1CC2c1ccc(Cl)nc1 (centres unmarked)", "TGT": "α3β4 nAChR subtype (Rattus norvegicus, UniProt P04757+P12392)", "QUANTITATIVE READOUT": 3.65}
{"MOLECULE": "O[C@H]1C[C@H]2C[C@H](c3ccc(Cl)nc3)[C@@H]1N2 (relative stereo)", "TGT": "α3β4 nAChR subtype (Rattus norvegicus, UniProt P04757+P12392)", "QUANTITATIVE READOUT": 1.44}
{"MOLECULE": "CCCCCc1cncc(C2CC3CCC2N3)c1 (centres unmarked)", "TGT": "α3β4 nAChR subtype (Rattus norvegicus, UniProt P04757+P12392)", "QUANTITATIVE READOUT": 2.09}
